Where do these numbers come from? They come from patent US5160727A.

- Test system: P388R cells
- experiment notes: Potentiation of adriamycin activity and cell growth in P388 resistant cells (Table II)
- Type: cell-based, murine
- details: Mus musculus, P388; test compound at 5 μM; read-out: % of Control Cell Growth
Counter-ions that a name gives are not always drawn.
test readout: activity at 5 µM (%)
One number for each entry, in %.

Look over these answered cases.
[
  {
    "compound": "CCCSc1ccccc1N1CCN(CCCCCn2c(=O)[nH]c3ccccc3c2=O)CC1",
    "activity at 5 µM [%]": 100
  },
  {
    "compound": "CCCCSc1ccccc1N1CCN(CCCCn2c(=O)[nH]c3ccccc3c2=O)CC1.Cl [Example 8, monohydrochloride]",
    "activity at 5 µM [%]": 88
  },
  {
    "compound": "CCCSc1ccccc1N1CCN(CCCn2c(=O)[nH]c3ccccc3c2=O)CC1.Cl [Example 2, monohydrochloride]",
    "activity at 5 µM [%]": 89
  },
  {
    "compound": "CCCSc1ccccc1N1CCN(CCCCCCn2c(=O)[nH]c3ccccc3c2=O)CC1 [Example 11, hydrate]",
    "activity at 5 µM [%]": 99
  },
  {
    "compound": "CCCSc1ccccc1N1CCN(CCCCn2c(=O)[nH]c3c(OC)cccc3c2=O)CC1",
    "activity at 5 µM [%]": 83
  },
  {
    "compound": "CCCSc1ccccc1N1CCN(CCCCn2c(=O)[nH]c3ccccc3c2=O)CC1 [Example 1, monohydrochloride]",
    "activity at 5 µM [%]": 100
  }
]

Query compound follows.
# query: activity at 5 µM of entry CSc1ccccc1N1CCN(CCCCn2c(=O)[nH]c3ccccc3c2=O)CC1 [Example 7, monohydrochloride]
95

* * *

- System: P388/ADR cells
- experiment notes: 72-hour growth inhibition of adriamycin-resistant P388/ADR cells by anticancer drug alone or with modifier (Table I)
- Type: cell-based, murine
- details: Mus musculus, read-out: ID50 (concentration that inhibits 72-hour cell growth by 50%), P388/ADR, anticancer drug with modifier VER (verapamil) 5 μg/mL, mean of two experiments in triplicate
test readout: pIC50
Numbers only, as −log10 of the molar value.

# query: pIC50 of entry COc1cc([C@@H]2c3cc4c(cc3[C@@H](O[C@@H]3O[C@@H]5CO[C@@H](C)O[C@H]5[C@H](O)[C@H]3O)[C@H]3COC(=O)[C@H]23)OCO4)cc(OC)c1O [Etoposide]
6.06
